# assay summary: Oral availability and serum level of DHZ by ELISA
# Type: in vivo, C57/B1 mice
# experimental conditions: C57/B1, mouse, serum; Oral, 100 microgram/dose, 60 minutes, mice
quantity measured: concentration at 60 minutes (ng/mL)
Hi! Could you send only the number? It should be in ng/mL, unit omitted.

Req: I would be grateful if you could share the reported concentration at 60 minutes for CC(CO)CCNc1ncnc2nc[nH]c12 (stereo not shown) [Dihydro-Zeatin, dihydrozeatin] .
Resp: 0.961

###

# Tested on: activated AMPK
# assay summary: Western immunoblot for activated (phospho-Thr172) AMPK in muscle cells
# Assay type: cell-based, mouse
# experimental conditions: 5.0 microM, cells treated 30 minutes at 37° C
Listing of entries alongside the reported FOLD AMPK ACTIVATION (OVER CONTROL).
Mention the unit after the number when you answer.

Check out these entries, answers already filled in.
molecule: c1ccc(CNc2ncnc3nc[nH]c23)cc1 [Benzyl-Adenine]
assayed target: activated AMPK
FOLD AMPK ACTIVATION (OVER CONTROL): 2.70 fold

molecule: Nc1nc2c(ncn2[C@@H]2O[C@H](CO)[C@@H](O)[C@H]2O)c(=O)[nH]1 [Guanosine]
assayed target: activated AMPK
FOLD AMPK ACTIVATION (OVER CONTROL): 3.70 fold

molecule: CC(=O)Nc1ncnc2c1ncn2[C@@H]1O[C@H](CO)[C@@H](O)[C@H]1O [N^6-Acetyl-Adenosine]
assayed target: activated AMPK
FOLD AMPK ACTIVATION (OVER CONTROL): 2.41 fold

molecule: Nc1ncnc2c1ncn2[C@@H]1O[C@H](CO)[C@@H](O)[C@H]1O [Adenosine]
assayed target: activated AMPK
FOLD AMPK ACTIVATION (OVER CONTROL): 1.64 fold

molecule: CC(C)=CCNc1ncnc2nc[nH]c12 [Gamma, Gamma-Dimethylally-6-Aminopurine]
assayed target: activated AMPK
FOLD AMPK ACTIVATION (OVER CONTROL): 2.45 fold

Below: the item to evaluate.
Req: I would be grateful if you could share the reported FOLD AMPK ACTIVATION (OVER CONTROL) for CC(CO)CCNc1ncnc2nc[nH]c12 (stereo not drawn) [Dihydro-Zeatin, dihydrozeatin] .
Resp: 0.59 fold

Each recorded value in this set is attributed to patent US20090208620A1.
